Listed next: entries and their corresponding melting point.

Here's what some known entries look like.
compound	result
O=C(NCCCCCCOc1ccccc1C(=O)Nc1ccc(C(=O)N2CCCCc3ccccc32)cc1)c1ccccc1	178 °C
NC(=O)c1ccc(-c2ccc3nnn(Cc4ccc5ncccc5c4)c3n2)cc1	229 to 231 °C
O=C(O)CNC1CCc2ccccc21 (stereo not given)	184 to 186 °C
CC1Cc2cc3c(cc2C(c2ccccc2)N1)OCO3 (stereo not given)	89 to 91 °C
O=C(CCCCBr)NNC(=O)N1Cc2ccccc2Oc2ccc(Cl)cc21	147 to 149 °C
COc1ccc(-c2cccs2)cc1	111 °C

Q. # get_value(readout='melting point', item= `COc1ccc(Cl)cc1NC(=O)NCC(=O)c1ccccc1` )
A. 171 to 173 °C

Q. Which melting point reading was recorded for the compound CC(c1oc2ccccc2c(=O)c1-c1cccc(F)c1)n1nc(-c2ccc(N)cc2)c2c(N)ncnc21 (stereo not given) ?
A. 91 to 94 °C

Q. Requested field: melting point. Item: CC(=O)c1ccccc1CN1C(=O)C(NC(=O)Nc2cccc(-c3nnn[nH]3)c2)N=C(C2CCCCC2)c2cccc(C)c21 (stereo not given)
A. 199 to 208 °C

Q. // melting point lookup, key: `CCCCCCc1cccc(NC2=NCCS2)c1`
A. 79 to 80 °C

* * *

melting point listing for selected compounds.

Here's what some known entries look like.
compound	melting point
COc1ccc2cc(C(C)C(O)(P(=O)(O)O)P(=O)(O)O)ccc2c1 (stereo not given)	205 °C
COc1ccc(CC(CC(=O)O)CC(=O)O)cc1	109 to 110 °C
Cc1cccc(C)c1N(CC(=O)N(C)C)C(=O)CCl	74 to 76 °C
Cc1ccc(-c2nc3sc4ccccc4n3c2CC(=O)O)s1	255 to 259 °C
O=C(O)CCC(=O)c1ccc(OCCCCN2C(=O)c3ccccc3C2=O)cc1	133 to 134 °C
NC1([C@@H]2CCN(c3ccc4c(=O)c(C(=O)O)cn([C@@H]5C[C@@H]5F)c4c3)C2)CC1	251 to 253 °C
Cc1ncn(C(=O)Nc2cc(Cl)cc(Cl)c2)c1Cl	137 to 139 °C
CCc1ccc2c(-c3ccccc3)onc2c1	41 to 43 °C

Q. What does the data say about its melting point? Entry: CN1CC(CN2CC(=O)NC2=O)CC2c3cccc4c3c(cn4C)CC21 (stereo not given)
A. 292 to 294 °C

Q. Give its melting point value. Item: `Cc1nc(C)c(-c2ccnc(Nc3ccc(Cl)c(CO)c3)n2)s1`
A. 245 to 246 °C

* * *

# melting point values compiled below

CN(C)N1C(=O)C(Cc2ccncc2)(Cc2ccncc2)c2ccccc21 190 to 193 °C
O=C(O)COc1cc(F)c(-c2ccccc2)cc1C(=O)NCc1cccc([N+](=O)[O-])c1 210 to 211 °C
O=C1NCCc2c(-c3ccc(Cl)c(C(F)(F)F)c3)[nH]c3cccc1c23 118 to 119 °C
CCOC(=O)[C@H](Cc1cc(O)c(O)cc1I)NC=O 131 to 132 °C

Now let's try a different one.
Q. # query: melting point of entry `COC(=O)c1cc2cc(CBr)ccc2s1`
A. 108 to 110 °C

* * *

result-type: melting point

compound	melting point
C=CC(=O)Oc1ccc(N2C(=O)C(=C(C)C)/C(=C(/C)c3c(C)n(C)c4ccccc34)C2=O)cc1	172 to 174 °C

Q. Which melting point reading was recorded for the compound `COc1cn(-c2ccc(-n3cccn3)cc2F)nc(C(C)=O)c1=O` ?
A. 159 to 161 °C

Q. Dear colleague, I am looking for the recorded melting point of the following compound: CCOCCn1cc2c(C3C(=O)Nc4ccc(Cl)cc43)nc(NCCN3CCOCC3)nc2n1 (stereo not drawn)
A. 293 to 294 °C

Q. Record request: melting point value, item `CON(C)C(=O)c1ccc(-c2cc(C(C)(C)C)c(O)c(C(C)(C)C)c2)cc1`
A. 176 to 177 °C

Q. Bench note: what melting point did `COc1nc2c(O)cccc2n1C` show?
A. 226 to 229 °C

Q. melting point lookup needed for `CNCCc1c[nH]c2ccc3c(=O)[nH]ccc3c12` , thanks.
A. 160 °C

Q. Any idea what its melting point is? The compound is OC1CCCCCC1n1cncn1 (stereo not drawn)
A. 85 to 86 °C

Q. Would you mind telling me what melting point value was observed for CN(C)c1cccc(CSC2NC(=S)NC2(C)C)c1 (stereo not drawn) ?
A. 178 to 179 °C
